# MEASUREMENT_TARGET: von Willebrand factor (VWF) (Homo sapiens, UniProt P04275 P04275:764-2813)
# EXPERIMENTAL_PROTOCOL: filter; Bmax 50%; 2 mM CaCl2, 37 C
# TEST_CONDITIONS: tags: factor VIII free, Haematologic Technologies Inc; label: 5'-32P
MEASURE_NAME: Kd

>  <BINDER>
ACGAACUGCCCUCAGACUUUCAUGUCUGACGCACAGACGU (ssRNA, 2'-F C and U; 2'-OH A and G; 3' idT) [T39]

>  <MEASURE_NAME>
Kd

>  <MEASURED_RESULT>
11 nM

$$$$
